Biological target: TANK-2 enzyme (Homo sapiens)
Construct: made in house
Sequence (Q9H2K2 1-1166): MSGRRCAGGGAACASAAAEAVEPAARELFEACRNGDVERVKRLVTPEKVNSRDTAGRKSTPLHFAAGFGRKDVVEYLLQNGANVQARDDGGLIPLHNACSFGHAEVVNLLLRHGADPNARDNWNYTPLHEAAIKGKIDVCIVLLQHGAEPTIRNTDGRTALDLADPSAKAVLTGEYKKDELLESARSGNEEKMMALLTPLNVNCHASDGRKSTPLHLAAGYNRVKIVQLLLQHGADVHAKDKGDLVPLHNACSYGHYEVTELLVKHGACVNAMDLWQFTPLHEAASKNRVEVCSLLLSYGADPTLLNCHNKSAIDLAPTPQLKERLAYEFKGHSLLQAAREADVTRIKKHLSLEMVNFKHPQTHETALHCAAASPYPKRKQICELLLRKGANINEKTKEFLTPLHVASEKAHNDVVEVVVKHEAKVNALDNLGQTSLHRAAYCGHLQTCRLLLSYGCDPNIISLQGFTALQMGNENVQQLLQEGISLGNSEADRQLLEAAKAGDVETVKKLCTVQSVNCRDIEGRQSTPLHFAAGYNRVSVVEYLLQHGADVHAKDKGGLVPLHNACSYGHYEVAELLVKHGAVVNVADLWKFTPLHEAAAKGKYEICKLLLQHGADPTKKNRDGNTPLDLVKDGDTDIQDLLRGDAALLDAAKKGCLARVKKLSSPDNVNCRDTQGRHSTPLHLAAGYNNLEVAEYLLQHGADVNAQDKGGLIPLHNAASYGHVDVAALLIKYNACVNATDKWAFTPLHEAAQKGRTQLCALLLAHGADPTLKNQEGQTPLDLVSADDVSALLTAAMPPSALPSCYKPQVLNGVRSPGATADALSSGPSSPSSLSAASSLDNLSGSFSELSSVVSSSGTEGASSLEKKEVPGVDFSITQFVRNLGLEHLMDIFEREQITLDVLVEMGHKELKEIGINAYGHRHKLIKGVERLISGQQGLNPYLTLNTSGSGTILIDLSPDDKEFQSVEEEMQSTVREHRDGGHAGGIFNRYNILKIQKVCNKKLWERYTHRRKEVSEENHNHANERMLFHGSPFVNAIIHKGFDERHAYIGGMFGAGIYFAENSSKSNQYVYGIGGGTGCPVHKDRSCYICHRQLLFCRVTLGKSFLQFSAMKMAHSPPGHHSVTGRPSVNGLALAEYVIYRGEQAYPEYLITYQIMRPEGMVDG
Test: In vitro Scintillation Proximity Assay (SPA) for TANK-2 inhibitory activity
Assay type: biochemical
Settings: read-out: in vitro SPA assay TANK-2 pIC50 (converted)
measurement_type: IC50 (nM)
Return type: number; implicit unit nM.

Examples with answers:
compound | IC50 [nM]
CCc1cc2ccc(C(C)(C#N)C(C)c3ccccc3)cc2[nH]c1=O (stereo not shown) | 794
CCc1cc2ccc([C@](C)(C#N)Cc3cccc(C#N)c3)cc2[nH]c1=O (single isomer, unassigned) | 158
CCc1cc2ccc(C(C#N)(CC)Cc3nc(C#N)cc(OC)n3)cc2[nH]c1=O (stereo not shown) | 126

Now consider a different compound.
Bench note: what IC50 did CCc1cc2ccc(C(C)(C#N)Cc3cccc(CNCCOC)c3)cc2[nH]c1=O (stereo not shown) show?
63.1
